Reference source for all entries: the kinase profiling compilation of Christmann-Franck et al. (2016)

- Tested on: RPS6KB1 (human), P23443 [T412E]
- Sequence (P23443 whole entry T412E, looked up): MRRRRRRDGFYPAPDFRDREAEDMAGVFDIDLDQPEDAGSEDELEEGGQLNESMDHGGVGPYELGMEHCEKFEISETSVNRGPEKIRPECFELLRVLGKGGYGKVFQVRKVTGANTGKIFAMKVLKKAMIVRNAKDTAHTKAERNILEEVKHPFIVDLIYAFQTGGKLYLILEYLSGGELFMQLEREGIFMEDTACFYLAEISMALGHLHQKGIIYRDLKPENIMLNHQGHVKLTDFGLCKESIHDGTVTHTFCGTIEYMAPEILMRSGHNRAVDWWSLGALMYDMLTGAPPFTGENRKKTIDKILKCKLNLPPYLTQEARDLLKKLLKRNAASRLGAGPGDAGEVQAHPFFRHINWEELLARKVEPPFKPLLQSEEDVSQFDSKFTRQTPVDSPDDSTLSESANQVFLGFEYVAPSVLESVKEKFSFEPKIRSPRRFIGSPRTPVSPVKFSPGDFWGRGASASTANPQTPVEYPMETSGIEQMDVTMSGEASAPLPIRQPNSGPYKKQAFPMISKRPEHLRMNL
- Assay protocol: radiometric filter-binding kinase assay
- Applied conditions: compound 10.0 µM
Here, each record is paired with measured residual activity data.
Note: state the figure and append the unit.

Look over these answered cases.
Cc1cc(SCc2sc(-c3ccc(C(F)(F)F)cc3)nc2C)ccc1OCC(=O)O | 105%
Oc1ccc(/C=C/c2cc(O)cc(O)c2)cc1 | 69%
NS(=O)(=O)OC[C@@H]1C[C@@H](n2ccc3c(N[C@H]4CCc5ccccc54)ncnc32)C[C@@H]1O | 85%
O=C1Nc2nc(-c3c(O)cccc3OCC3CC3)cc(C3CCCNC3)c2CO1 (stereo unspecified) | 68%
NC(=O)c1cc(-c2ccnc(NC3CCCCC3)c2)nc(N2CCNCC2)c1 | 94%
C=CC(=O)N1CCC[C@@H](n2nc(-c3ccc(Oc4ccccc4)cc3)c3c(N)ncnc32)C1 | 66%

Let me check: COc1ccc2c(c1)c1c3c(c4c5ccccc5n(C)c4c1n2CC(O)CN(C)C)C(=O)NC3=O (stereo unspecified) , system RPS6KB1 (human), P23443 [T412E], measured residual activity is 1%

Let me check: "COc1cc(C(=O)N2CCOCC2)c(F)cc1Nc1ncc(C(F)(F)F)c(NC2CC2)n1" , system RPS6KB1 (human), P23443 [T412E], measured residual activity is 68%

Let me check: "NC(=O)c1cc2c(-c3cccc(-c4ccccc4)c3)cnc(N)c2s1" , system RPS6KB1 (human), P23443 [T412E], measured residual activity is 39%

Let me check: "NC1(c2ccc(-c3nc4ccn5c(=O)[nH]nc5c4cc3-c3ccccc3)cc2)CCC1" , system RPS6KB1 (human), P23443 [T412E], measured residual activity is 84%

Let me check: "CCOC(=O)c1ccc(N2NC(=O)/C(=C/c3ccc([N+](=O)[O-])o3)C2=O)cc1" , system RPS6KB1 (human), P23443 [T412E], measured residual activity is 120%

---

- Target system: PKN2 (human) (UniProt Q16513)
- Sequence (Q16513 whole entry, looked up): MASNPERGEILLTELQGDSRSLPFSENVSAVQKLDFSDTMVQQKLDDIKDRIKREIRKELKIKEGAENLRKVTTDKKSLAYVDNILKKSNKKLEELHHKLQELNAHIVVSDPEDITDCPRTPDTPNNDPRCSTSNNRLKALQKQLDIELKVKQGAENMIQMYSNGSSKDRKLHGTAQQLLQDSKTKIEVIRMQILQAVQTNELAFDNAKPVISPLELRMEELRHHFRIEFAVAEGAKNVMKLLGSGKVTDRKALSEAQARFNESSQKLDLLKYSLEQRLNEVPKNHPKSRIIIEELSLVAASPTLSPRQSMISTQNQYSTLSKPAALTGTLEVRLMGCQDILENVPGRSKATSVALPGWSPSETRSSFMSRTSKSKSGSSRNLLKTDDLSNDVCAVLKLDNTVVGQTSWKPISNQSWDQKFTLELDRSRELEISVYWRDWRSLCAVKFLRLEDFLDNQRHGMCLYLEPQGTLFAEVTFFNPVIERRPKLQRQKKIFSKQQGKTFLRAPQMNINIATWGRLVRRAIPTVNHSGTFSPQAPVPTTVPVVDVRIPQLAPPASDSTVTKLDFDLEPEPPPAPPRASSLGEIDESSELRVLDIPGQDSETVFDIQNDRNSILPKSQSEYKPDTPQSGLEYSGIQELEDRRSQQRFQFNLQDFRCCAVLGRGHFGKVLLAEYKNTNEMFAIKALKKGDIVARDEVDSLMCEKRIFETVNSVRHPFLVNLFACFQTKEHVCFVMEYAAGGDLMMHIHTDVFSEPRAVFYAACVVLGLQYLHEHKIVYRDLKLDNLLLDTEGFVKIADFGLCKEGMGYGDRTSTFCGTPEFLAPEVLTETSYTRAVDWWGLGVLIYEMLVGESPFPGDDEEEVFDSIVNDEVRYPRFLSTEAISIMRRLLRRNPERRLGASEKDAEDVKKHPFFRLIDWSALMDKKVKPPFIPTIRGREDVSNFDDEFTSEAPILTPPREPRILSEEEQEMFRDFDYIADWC
- Assay protocol: radiometric filter-binding kinase assay
- Applied conditions: compound 0.1 µM
Parameter threshold = 90%. Response is criterion met when residual activity meets or exceeds it, else criterion not met.

NC(=O)Nc1ccc2c(c1)/C(=C/c1cc(-c3cccnc3)c[nH]1)C(=O)N2 | criterion not met

Query: I'd appreciate it if you could say whether "Cc1cccc(-c2nn(C(=S)Nc3ccccc3)cc2-c2ccnc3ccccc23)n1" has residual activity at least equal to 90%.
Response: criterion met

Query: I'd appreciate it if you could say whether "Cc1cc(NC(=O)c2cccc(NC(=O)/C=C/CN(C)C)c2)ccc1Nc1nccc(-c2cccnc2)n1" has residual activity at least equal to 90%.
Response: criterion met

Query: I'd appreciate it if you could say whether "CNc1nc(-c2ccc3c(N)n[nH]c3c2)cc(N2C[C@@H](C(=O)NC3CCCCC3)CC[C@H]2C)n1" has residual activity at least equal to 90%.
Response: criterion met

---

- Target system: MELK (human) (UniProt Q14680)
- Sequence (Q14680 whole entry, looked up): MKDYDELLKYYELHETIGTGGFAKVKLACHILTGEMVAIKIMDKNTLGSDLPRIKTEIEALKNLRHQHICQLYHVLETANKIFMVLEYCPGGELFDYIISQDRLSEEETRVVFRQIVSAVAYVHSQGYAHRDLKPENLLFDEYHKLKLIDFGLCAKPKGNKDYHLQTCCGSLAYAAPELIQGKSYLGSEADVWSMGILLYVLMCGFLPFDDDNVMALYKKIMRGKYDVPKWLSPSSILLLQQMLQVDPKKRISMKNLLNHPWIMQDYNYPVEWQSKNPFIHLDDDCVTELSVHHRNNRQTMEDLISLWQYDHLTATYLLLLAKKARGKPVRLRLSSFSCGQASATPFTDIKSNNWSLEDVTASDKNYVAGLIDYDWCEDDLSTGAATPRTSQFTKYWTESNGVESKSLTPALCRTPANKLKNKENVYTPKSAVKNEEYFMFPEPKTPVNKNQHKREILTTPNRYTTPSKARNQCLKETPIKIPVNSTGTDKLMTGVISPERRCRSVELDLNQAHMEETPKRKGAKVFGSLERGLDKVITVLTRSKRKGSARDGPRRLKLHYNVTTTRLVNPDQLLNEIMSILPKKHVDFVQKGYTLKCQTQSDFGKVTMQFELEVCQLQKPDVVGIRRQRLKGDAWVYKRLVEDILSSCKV
- Assay protocol: radiometric filter-binding kinase assay
- Applied conditions: compound 10.0 µM
Here, each record is paired with measured residual activity data.
Just the number please, in %, no unit attached.

Look over these answered cases.
c1ccc2c(-c3cnn4cc(-c5ccc(N6CCNCC6)cc5)cnc34)ccnc2c1 | 18
O=S(=O)(c1ccc(F)c2nonc12)N1CCN(c2ncc(C(F)(F)F)cc2Cl)CC1 | 107
Cc1ccc(-c2ccc3c(ccc4sc5c(c43)NC[C@@H](C)NC5=O)n2)cn1 | 77

Lab note: measured residual activity of "O=C(O)c1cc(N=Nc2ccc(S(=O)(=O)Nc3ccccn3)cc2)ccc1O" was 101

Lab note: measured residual activity of "COC(=O)/C=C/C(=O)OC" was 93

Lab note: measured residual activity of O=C(NOCC(O)CO)c1ccc(F)c(F)c1Nc1ccc(I)cc1Cl (stereo unspecified) was 106

Lab note: measured residual activity of "O=C(O)c1ccc(-c2c[nH]c3ncc(-c4ccccc4)cc23)cc1C1CCCC1" was 8

Lab note: measured residual activity of "COc1cc(C(=O)N2CCOCC2)c(F)cc1Nc1ncc(C(F)(F)F)c(NC2CC2)n1" was 39

Lab note: measured residual activity of "FC(F)(F)c1ccc(-c2ccc(Oc3cncc4sc(-c5nn[nH]n5)cc34)cc2)cc1" was 19

Lab note: measured residual activity of "Oc1ccc(/C=C/c2cc(O)cc(O)c2)cc1" was 50

Lab note: measured residual activity of "Cc1cc(SCc2sc(-c3ccc(C(F)(F)F)cc3)nc2C)ccc1OCC(=O)O" was 85

Lab note: measured residual activity of "Cc1nc(-c2ccc(OCC(C)C)c(C#N)c2)sc1C(=O)O" was 87

Lab note: measured residual activity of "NS(=O)(=O)OC[C@@H]1C[C@@H](n2ccc3c(N[C@H]4CCc5ccccc54)ncnc32)C[C@@H]1O" was 91

Lab note: measured residual activity of "CCNc1nc(Nc2cc(F)c(C(=O)N3CCOCC3)cc2OC)ncc1C(F)(F)F" was 43

Lab note: measured residual activity of "Oc1ccc2ccccc2c1SSc1c(O)ccc2ccccc12" was 97

Lab note: measured residual activity of "O=C1NC(=S)N[C@@H]1Cc1c[nH]c2ccccc12" was 100

---

- Test system: LCK (mouse)
- Assay protocol: radiometric filter-binding kinase assay
- Applied conditions: compound 100.0 µM; accession and sequence are those of the human protein
Here, each record is paired with measured residual activity data.

Look over these answered cases.
Cc1cc(N=Nc2cc(S(=O)(=O)O)c(C)cc2C)c(N)cc1O | 112%
COC(=O)/C=C/C(=O)OC | 72%
N#Cc1c(O)c2c(-c3ccc(-c4ccccc4O)cc3)csc2[nH]c1=O | 58%

Here is another molecule to look at.
Lab note: measured residual activity of "Cc1ccc2c(c1)C(=O)[C@@]1(O)CCN(c3ccccc3)C1=N2" was 72%

---

Here, each record is paired with measured residual activity data.
- Target system: PLK1 (human)
- Assay protocol: radiometric filter-binding kinase assay
- Applied conditions: compound 1.0 µM
Just the number please, in %, no unit attached.

Look over these answered cases.
NC1(c2ccc(-c3nc4ccn5c(=O)[nH]nc5c4cc3-c3ccccc3)cc2)CCC1 | 105
CCn1c(-c2nonc2N)nc2cncc(CNC3CCNCC3)c21 | 60
N#Cc1c(C2CCNCC2)cc(-c2c(O)cccc2OCC2CC2)nc1N | 83
Cn1c(=O)c2c(ncn2C)n(C)c1=O | 95

Here is another compound to look at.
Lab note: measured residual activity of COc1cc(O)c2c(c1)[C@H]1OC1C[C@H](O)[C@H](O)C(=O)/C=C\C[C@H](C)OC2=O (stereo not given in full) was 114

---

- Target system: EPHB1 (human) (UniProt P54762)
- Sequence (P54762 whole entry, looked up): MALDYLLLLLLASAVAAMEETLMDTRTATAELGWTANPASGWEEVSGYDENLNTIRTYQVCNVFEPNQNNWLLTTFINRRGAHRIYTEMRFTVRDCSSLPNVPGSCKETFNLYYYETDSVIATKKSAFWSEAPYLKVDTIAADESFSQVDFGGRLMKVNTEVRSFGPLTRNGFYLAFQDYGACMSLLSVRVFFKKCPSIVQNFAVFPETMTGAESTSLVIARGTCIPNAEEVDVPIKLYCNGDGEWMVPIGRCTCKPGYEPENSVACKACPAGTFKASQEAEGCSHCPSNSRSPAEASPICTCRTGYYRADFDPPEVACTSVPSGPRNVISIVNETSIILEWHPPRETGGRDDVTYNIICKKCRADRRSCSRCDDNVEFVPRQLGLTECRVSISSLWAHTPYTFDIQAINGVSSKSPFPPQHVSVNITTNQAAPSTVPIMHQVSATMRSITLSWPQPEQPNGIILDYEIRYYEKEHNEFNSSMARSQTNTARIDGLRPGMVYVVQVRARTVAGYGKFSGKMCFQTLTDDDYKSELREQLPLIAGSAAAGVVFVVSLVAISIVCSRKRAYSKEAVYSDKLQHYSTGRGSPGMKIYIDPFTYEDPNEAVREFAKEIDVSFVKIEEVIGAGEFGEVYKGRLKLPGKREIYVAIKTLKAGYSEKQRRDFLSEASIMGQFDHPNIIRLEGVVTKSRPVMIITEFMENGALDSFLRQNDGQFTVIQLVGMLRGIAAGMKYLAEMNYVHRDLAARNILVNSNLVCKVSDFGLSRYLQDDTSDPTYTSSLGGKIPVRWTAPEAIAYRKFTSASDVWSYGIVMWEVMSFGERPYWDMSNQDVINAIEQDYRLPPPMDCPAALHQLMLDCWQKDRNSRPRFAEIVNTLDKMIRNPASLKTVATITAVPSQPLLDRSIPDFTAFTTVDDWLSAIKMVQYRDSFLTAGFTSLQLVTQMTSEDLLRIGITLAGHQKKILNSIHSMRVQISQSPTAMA
- Assay protocol: radiometric filter-binding kinase assay
- Applied conditions: compound 1.0 µM
Measured property: residual activity (%)
Just the number please, in %, no unit attached.

Look over these answered cases.
NC(=O)c1cc(-c2ccnc(NC3CCCCC3)c2)nc(N2CCNCC2)c1 | 111
NC1(c2ccc(-c3nc4ccn5c(=O)[nH]nc5c4cc3-c3ccccc3)cc2)CCC1 | 109
COc1cc2ncn(-c3cc(OCc4ccccc4S(C)(=O)=O)c(C#N)s3)c2cc1OC | 79
Cc1cc(NC(=O)c2cccc(NC(=O)/C=C/CN(C)C)c2)ccc1Nc1nccc(-c2cccnc2)n1 | 95
CNc1nc(-c2ccc3c(N)n[nH]c3c2)cc(N2C[C@@H](C(=O)NC3CCCCC3)CC[C@H]2C)n1 | 111
CN(C)C/C=C/C(=O)Nc1cccc(C(=O)Nc2ccc(Nc3nccc(-c4cccnc4)n3)cc2)c1 | 86
NCC(=O)Nc1ccc(-n2nc(C(F)(F)F)cc2-c2ccc3c(ccc4ccccc43)c2)cc1 | 72

Let me check: CC1=C(CO)C(=O)O[C@@H]([C@@H](C)[C@H]2CC[C@H]3[C@@H]4C[C@H]5O[C@]56[C@@H](O)C=CC(=O)[C@]6(C)C4CC[C@]23C)C1 (stereo partly drawn) , system EPHB1 (human) (UniProt P54762), measured residual activity is 101

---

- Target system: PTK6 (human) (UniProt Q13882)
- Sequence (Q13882 whole entry, looked up): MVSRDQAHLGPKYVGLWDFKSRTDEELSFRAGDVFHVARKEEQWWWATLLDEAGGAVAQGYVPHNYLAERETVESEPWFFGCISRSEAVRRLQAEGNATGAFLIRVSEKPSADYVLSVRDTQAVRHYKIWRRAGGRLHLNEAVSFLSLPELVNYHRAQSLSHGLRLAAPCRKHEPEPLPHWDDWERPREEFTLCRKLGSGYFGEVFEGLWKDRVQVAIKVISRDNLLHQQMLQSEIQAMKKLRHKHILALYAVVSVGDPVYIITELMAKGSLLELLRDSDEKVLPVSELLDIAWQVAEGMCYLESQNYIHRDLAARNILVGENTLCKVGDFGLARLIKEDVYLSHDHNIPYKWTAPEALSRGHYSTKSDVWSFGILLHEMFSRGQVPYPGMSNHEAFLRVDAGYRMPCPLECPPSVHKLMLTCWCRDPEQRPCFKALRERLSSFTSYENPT
- Assay protocol: radiometric filter-binding kinase assay
- Applied conditions: compound 1.0 µM
Measured property: residual activity (%)
Just the number please, in %, no unit attached.

Look over these answered cases.
Cc1cc(NC(=O)c2cccc(NC(=O)/C=C/CN(C)C)c2)ccc1Nc1nccc(-c2cccnc2)n1 | 75
CCCCCc1ccc(/C=C/[C@H](O)[C@@H](CO)NC)cc1 | 93
Cc1nc(-c2ccc(OCC(C)C)c(C#N)c2)sc1C(=O)O | 99
O=C(Nc1nc2cc(C(F)(F)F)cc(NC3CC3)n2n1)c1cccnc1 | 124
Cc1ccc(-c2ccc3c(ccc4sc5c(c43)NC[C@@H](C)NC5=O)n2)cn1 | 94

Let me check: "NC(=O)c1cc(-c2ccnc(NC3CCCCC3)c2)nc(N2CCNCC2)c1" , system PTK6 (human) (UniProt Q13882), measured residual activity is 124

Let me check: "CN(C)C/C=C/C(=O)Nc1cccc(C(=O)Nc2ccc(Nc3nccc(-c4cccnc4)n3)cc2)c1" , system PTK6 (human) (UniProt Q13882), measured residual activity is 81

Let me check: "c1ccc2c(-c3cnn4cc(-c5ccc(N6CCNCC6)cc5)cnc34)ccnc2c1" , system PTK6 (human) (UniProt Q13882), measured residual activity is 21

Let me check: CNC(=O)C1[C@H]2O[C@@](C)([C@@H]1N)n1c3ccccc3c3c4c(c5c6ccccc6n2c5c31)C(=O)NC4 (stereo partly drawn) , system PTK6 (human) (UniProt Q13882), measured residual activity is 4

Let me check: "COc1cc(O)c2c(c1)/C=C/C[C@H](O)[C@H](O)C(=O)/C=C\C[C@H](C)OC2=O" , system PTK6 (human) (UniProt Q13882), measured residual activity is 25

Let me check: "O=C(N[C@@H](COc1ccc2[nH]c(=O)[nH]c2c1)c1ccccc1)c1cccn(Cc2ccc(F)c(F)c2)c1=O" , system PTK6 (human) (UniProt Q13882), measured residual activity is 129

Let me check: CC1=C(CO)C(=O)O[C@@H]([C@@H](C)[C@H]2CC[C@H]3[C@@H]4C[C@H]5O[C@]56[C@@H](O)C=CC(=O)[C@]6(C)C4CC[C@]23C)C1 (stereo partly drawn) , system PTK6 (human) (UniProt Q13882), measured residual activity is 123

Let me check: "Cc1ccc(=O)n(-c2ccccc2)c1" , system PTK6 (human) (UniProt Q13882), measured residual activity is 101
